Assay: Cytotoxicity assay (MTS, 7 days)
Assay type: cell-based, Human
Settings: human, NHDF cells, MTS, ND = 100% viability up to 10 µM, read-out: Cytotoxicity against NHDF (7 Days) CC50
Parameter: CC50 at 7 days

QUERY: Look up and state reported CC50 at 7 days for CN1CCN(Cc2ccc(-c3cnc4[nH]cc(-c5ccc6[nH]ccc6c5)c4c3)cc2)CC1
RESULT: > 10 µM

###

Would you kindly list IC50 for each of these compounds?
System: Toxoplasma gondii tachyzoites of RH strain
Experiment: Plaque assay (7 days) in NHDF monolayers infected with T. gondii
Type: cell-based
Conditions: 7 days of treatment, two independent experiments

Below are some compounds; for each one, tell me its IC50.
1. Cc1nc2ccc(Oc3ccccc3)cc2c2c1CCN2CCc1ccccc1
2. Oc1cccc(C(Nc2nccs2)c2ccc3cccnc3c2O)c1 (stereo not drawn)
3. O=S(=O)(Nc1cccc2cccnc12)c1ccccc1
4. COc1cc(NS(=O)(=O)c2ccc(C)cc2)c2ncccc2c1
5. Fc1ccc(-c2nc(-c3c[nH]c4ccc(Br)cc34)[nH]c2-c2ccc(F)cc2)cc1
6. Clc1cc(Cl)c2c(c1)CCc1ccccc1C2n1ccnc1 (stereo not drawn)

RESULT:
920 nM
320 nM
1100 nM
485 nM
940 nM
724 nM
